Target: T1, LRP6 E1E2 protein (human, UniProt O75581 20-630, limits assumed)
T1 construct: domain: E1E2
T1 sequence (looked up): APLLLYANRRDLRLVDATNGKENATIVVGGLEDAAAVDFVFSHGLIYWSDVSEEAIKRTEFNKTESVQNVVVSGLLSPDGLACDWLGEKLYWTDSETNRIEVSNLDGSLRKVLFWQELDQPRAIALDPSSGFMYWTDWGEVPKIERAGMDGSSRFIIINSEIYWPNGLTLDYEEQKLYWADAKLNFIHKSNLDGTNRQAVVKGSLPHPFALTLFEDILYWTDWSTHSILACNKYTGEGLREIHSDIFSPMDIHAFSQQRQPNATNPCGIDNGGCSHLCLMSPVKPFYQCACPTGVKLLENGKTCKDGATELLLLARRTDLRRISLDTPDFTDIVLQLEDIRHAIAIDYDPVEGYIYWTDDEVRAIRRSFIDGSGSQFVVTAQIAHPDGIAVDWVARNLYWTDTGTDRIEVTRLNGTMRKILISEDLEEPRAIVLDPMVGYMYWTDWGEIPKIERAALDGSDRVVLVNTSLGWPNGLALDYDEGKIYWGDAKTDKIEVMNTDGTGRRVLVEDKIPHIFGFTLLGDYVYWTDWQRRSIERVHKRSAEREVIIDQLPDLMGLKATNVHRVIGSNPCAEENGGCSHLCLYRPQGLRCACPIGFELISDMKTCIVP
Test: spot phage ELISA
Kindly supply the reported S/N vs BSA values for the records listed here.

stdin: For GCASSNSIRQGWCKQDSDCLAGCVCGPKSNCG (designed binder) [LRP6_CKP10] , write its S/N vs BSA.
stdout: 37.4

stdin: Supply measured S/N vs BSA of GCSNRVKVRACKQDSDCLAGCVCGPNGFCG (designed binder) [LRP6_CKP19] in your reply.
stdout: 42

stdin: Please list S/N vs BSA recorded for the binder GCGNKIRACKQDSDCLAGCVCRDRVGCG (designed binder) [LRP6_CKP21]
stdout: 33.7

stdin: Input GCGSNKIRPRCKQDSDCLAGCVCGPNDFCG (designed binder) [LRP6_CKP14] , output reported S/N vs BSA.
stdout: 43.5
